Target: HCMV polymerase (Human cytomegalovirus)
Construct: made in house; host or cells: SF-9 insect cells infected with recombinant baculovirus
Sequence (P08546 whole entry): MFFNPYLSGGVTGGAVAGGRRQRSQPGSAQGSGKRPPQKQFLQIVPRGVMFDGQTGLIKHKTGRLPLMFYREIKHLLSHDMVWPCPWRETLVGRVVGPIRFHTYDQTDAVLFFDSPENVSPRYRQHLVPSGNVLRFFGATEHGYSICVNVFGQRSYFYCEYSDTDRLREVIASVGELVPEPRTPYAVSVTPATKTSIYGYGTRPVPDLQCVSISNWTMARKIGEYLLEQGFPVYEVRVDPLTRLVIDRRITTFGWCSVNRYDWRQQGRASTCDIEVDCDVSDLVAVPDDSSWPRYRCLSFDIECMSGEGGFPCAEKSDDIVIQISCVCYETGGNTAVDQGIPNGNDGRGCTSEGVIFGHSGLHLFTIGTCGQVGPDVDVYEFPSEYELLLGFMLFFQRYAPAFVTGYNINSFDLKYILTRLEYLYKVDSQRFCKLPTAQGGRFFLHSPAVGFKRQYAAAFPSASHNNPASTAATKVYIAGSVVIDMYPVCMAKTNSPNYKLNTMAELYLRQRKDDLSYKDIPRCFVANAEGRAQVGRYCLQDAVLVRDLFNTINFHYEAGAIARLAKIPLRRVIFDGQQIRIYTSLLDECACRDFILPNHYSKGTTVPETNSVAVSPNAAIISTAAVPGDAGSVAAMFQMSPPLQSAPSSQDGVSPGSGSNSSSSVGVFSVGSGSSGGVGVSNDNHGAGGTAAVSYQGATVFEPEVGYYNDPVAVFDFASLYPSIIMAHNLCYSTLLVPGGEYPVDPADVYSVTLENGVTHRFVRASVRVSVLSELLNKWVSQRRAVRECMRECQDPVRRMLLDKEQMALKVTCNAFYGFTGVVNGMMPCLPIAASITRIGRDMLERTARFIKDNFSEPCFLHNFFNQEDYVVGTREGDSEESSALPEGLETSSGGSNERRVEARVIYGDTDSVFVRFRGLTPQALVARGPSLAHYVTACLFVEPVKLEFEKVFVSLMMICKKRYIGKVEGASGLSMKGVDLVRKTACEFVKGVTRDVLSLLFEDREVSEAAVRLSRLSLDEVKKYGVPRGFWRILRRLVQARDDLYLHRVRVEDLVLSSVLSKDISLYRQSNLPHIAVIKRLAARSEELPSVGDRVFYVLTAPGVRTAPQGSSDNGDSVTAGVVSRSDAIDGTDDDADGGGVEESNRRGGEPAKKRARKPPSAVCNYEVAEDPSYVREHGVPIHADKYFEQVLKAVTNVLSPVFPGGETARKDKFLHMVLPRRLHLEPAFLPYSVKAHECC
Experiment: HCMV polymerase assay (scintillation proximity assay)
Type: biochemical
Settings: percentage of inhibition at 25 μM concentration in CMV polymerase assay
Reported inhibition at 25 µM is given for each of the following compounds.
Expressed in %, but write only the number.

Recorded results for 4 compounds are shown here.
- COMPOUND: "CC(C)(C)OC(=O)CCNc1nnc(NC(=O)/C=C/c2ccccc2Cl)s1"
  UNIT DESCRIPTOR: "%"
  VALUE REPORTED: 23.5
- COMPOUND: "O=C(/C=C/c1ccccc1)Nc1nnc(NCc2ccncc2)s1"
  UNIT DESCRIPTOR: "%"
  VALUE REPORTED: 65.9
- COMPOUND: "O=C(Nc1nnc(NCCCNC2CCCCC2)s1)c1cc2ccccc2s1"
  UNIT DESCRIPTOR: "%"
  VALUE REPORTED: 74
- COMPOUND: "COc1ccccc1C(=O)Nc1nnc(NC[C@@H]2CCC3CC2C3(C)C)s1 (some centres unmarked)"
  UNIT DESCRIPTOR: "%"
  VALUE REPORTED: 97.2

Please look at the following compound next.
Query block: Which inhibition at 25 µM is reported for this compound? O=C(Nc1nnc(NCc2ccc3c(c2)OCO3)s1)c1ccc(I)cc1
Result block: 20.7
